Quick list: IC50 per entry.
tested on: Ba/F3 EGFR Del19/C797S cells; test: Cell proliferation inhibition assay (Cell Titer-Glo), Ba/F3 EGFR Del19/C797S; assay type: cell-based; settings: 72 hours, read-out: Ba/F3 EGFR Del19_C797S IC50
# unit: nM | format: bare number

Example cases with answers are listed next.
- compound: "CC(C)c1ccc(N2C[C@H](CS(C)(=O)=O)[C@H]2C)c2cnc(Nc3ccnc(-c4cnn(C5CC5)c4)n3)cc12"
  u: "nM"
  IC50: 41
- compound: "CC(C)c1ccc(N2C[C@H](CS(C)(=O)=O)[C@H]2C)c2cnc(Nc3ccnc(-c4cnn(C5(CF)CC5)c4)n3)cc12"
  u: "nM"
  IC50: 64

[ask] May I ask what IC50 has been recorded for CC(C)c1ccc(N2C[C@H](CS(C)(=O)=O)[C@H]2C)c2cnc(Nc3ccnc(-c4cnn(C5CC5(F)F)c4)n3)cc12 (stereo partly drawn) ?
[reply] 56

---

Quick list: pIC50 per entry.
target: EGFR del19/T790M/C797S mutant kinase (Homo sapiens, UniProt P00533, C797S/DEL746-750/T790M); test: HTRF kinase assay, EGFR del19/T790M/C797S mutant kinase; conditions: 120 minutes at room temperature
Sequence (P00533 with tags, fused parts or gaps C797S/DEL746-750/T790M limits assumed): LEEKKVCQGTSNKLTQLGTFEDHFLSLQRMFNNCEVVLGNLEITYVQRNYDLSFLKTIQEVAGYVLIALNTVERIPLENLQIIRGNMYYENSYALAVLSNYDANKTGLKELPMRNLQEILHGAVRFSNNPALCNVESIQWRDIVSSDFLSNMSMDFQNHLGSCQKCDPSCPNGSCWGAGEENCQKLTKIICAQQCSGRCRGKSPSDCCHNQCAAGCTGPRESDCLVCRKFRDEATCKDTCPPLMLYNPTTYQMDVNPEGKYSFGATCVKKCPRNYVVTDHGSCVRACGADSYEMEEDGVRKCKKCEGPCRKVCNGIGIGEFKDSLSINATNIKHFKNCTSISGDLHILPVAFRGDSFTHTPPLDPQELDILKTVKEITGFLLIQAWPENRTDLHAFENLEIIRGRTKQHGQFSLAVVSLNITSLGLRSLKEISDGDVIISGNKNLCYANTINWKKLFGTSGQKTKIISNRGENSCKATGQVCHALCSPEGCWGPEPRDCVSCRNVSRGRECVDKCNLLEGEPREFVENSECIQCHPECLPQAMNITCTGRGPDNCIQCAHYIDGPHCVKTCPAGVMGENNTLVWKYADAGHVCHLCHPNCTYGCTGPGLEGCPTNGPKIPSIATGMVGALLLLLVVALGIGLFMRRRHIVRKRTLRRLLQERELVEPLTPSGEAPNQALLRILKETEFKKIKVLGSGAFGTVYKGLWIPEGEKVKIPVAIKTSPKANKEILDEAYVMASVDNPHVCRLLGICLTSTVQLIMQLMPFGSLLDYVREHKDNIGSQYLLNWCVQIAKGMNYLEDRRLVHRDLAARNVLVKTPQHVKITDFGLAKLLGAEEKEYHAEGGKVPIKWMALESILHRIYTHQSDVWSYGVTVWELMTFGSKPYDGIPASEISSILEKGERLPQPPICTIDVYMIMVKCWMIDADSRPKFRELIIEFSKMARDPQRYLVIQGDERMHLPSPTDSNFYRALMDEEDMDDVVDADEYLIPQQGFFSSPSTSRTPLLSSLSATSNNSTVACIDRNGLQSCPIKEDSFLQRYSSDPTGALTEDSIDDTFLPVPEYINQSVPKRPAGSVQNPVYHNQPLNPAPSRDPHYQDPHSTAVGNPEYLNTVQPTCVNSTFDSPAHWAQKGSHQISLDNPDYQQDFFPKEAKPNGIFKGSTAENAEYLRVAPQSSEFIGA
Please treat pIC50 as minus the base-10 logarithm of the molar concentration.

Example cases with answers are listed next.
- molecule: "CC(C)c1ccc(N2C[C@H](CS(C)(=O)=O)[C@H]2C)c2cnc(Nc3ccnc(-c4cnn(CCF)c4)n3)cc12"
  pIC50: 8.05
- molecule: "CC(C)c1ccc(N2C[C@H](CS(C)(=O)=O)[C@H]2C)c2cnc(Nc3ccnc(-c4cnn(CCO)c4)n3)cc12"
  pIC50: 8.38

[ask] May I ask what pIC50 has been recorded for `CC(C)c1ccc(N2C[C@H](CS(C)(=O)=O)[C@H]2C)c2cnc(Nc3ccnc(-c4cnn(C)c4)n3)cc12` ?
[reply] 8.44

[ask] May I ask what pIC50 has been recorded for CC(C)c1ccc(N2C[C@H](CS(C)(=O)=O)[C@H]2C)c2cnc(Nc3ccnc(-c4cnn(CC5CCO5)c4)n3)cc12 (stereo partly shown) ?
[reply] 8.41

---

Quick list: pIC50 per entry.
test system: Ba/F3 EGFR Del19/C797S cells; assay: Cell proliferation inhibition assay (Cell Titer-Glo), Ba/F3 EGFR Del19/C797S; format: cell-based; conditions: 72 hours, read-out: Ba/F3 EGFR Del19_C797S IC50
Please treat pIC50 as minus the base-10 logarithm of the molar concentration.

Example cases with answers are listed next.
- compound: "CC(C)c1ccc(N2C[C@H](N3CCOC3=O)[C@H]2C)c2cnc(Nc3ccnc(-c4cn(C)nc4Cl)n3)cc12 [Example 74]"
  observed_value: 7.85
- compound: "CC(C)c1c(F)cc(N2C[C@H](CS(C)(=O)=O)[C@H]2C)c2cnc(Nc3ccnc(-c4cnn(C)c4)n3)cc12 [Example 39]"
  observed_value: 7.14
- compound: "CC(C)c1ccc(N2C[C@H](CS(C)(=O)=O)[C@H]2C)c2cnc(Nc3ccnc(-c4cnn(CCO)c4)n3)cc12 [Example 48]"
  observed_value: 7.07
- compound: "CC(C)c1ccc(N2C[C@H](CS(C)(=O)=O)[C@H]2C)c2cnc(Nc3ccnc(-c4cnn(C(F)F)c4)n3)cc12 [Example 25]"
  observed_value: 7.27
- compound: "CC(C)c1ccc(N2C[C@H](CS(C)(=O)=O)[C@H]2C)c2cnc(Nc3ccnc(-c4cnn(CCF)c4)n3)cc12 [Example 27]"
  observed_value: 7.40

[ask] May I ask what pIC50 has been recorded for Cc1nn(C)cc1-c1nccc(Nc2cc3c(C(C)C)ccc(N4CC(NS(C)(=O)=O)C4)c3cn2)n1 [Example 60] ?
[reply] 7.59

[ask] May I ask what pIC50 has been recorded for CC(C)c1ccc(N2CC(N3C[C@@H](C)OC3=O)C2)c2cnc(Nc3ccnc(-c4cn(C)nc4Cl)n3)cc12 [Example 84] ?
[reply] 7.03

[ask] May I ask what pIC50 has been recorded for COC(=O)NC1CN(c2ccc(C(C)C)c3cc(Nc4ccnc(-c5cn(C)nc5Cl)n4)ncc23)C1 [Example 72] ?
[reply] 7.11

[ask] May I ask what pIC50 has been recorded for CC(C)c1ccc(N2CC(C[S+](C)[O-])C2)c2cnc(Nc3ccnc(-c4cn(C)nc4Cl)n3)cc12 (stereo not drawn) [Example 76] ?
[reply] 7.20

[ask] May I ask what pIC50 has been recorded for CC(C)c1ccc(N2C[C@H](CS(C)(=O)=O)[C@H]2C)c2cnc(Nc3ccnc(-c4cnn(C5(C#N)CC5)c4)n3)cc12 [Example 13] ?
[reply] 7.09
